System: Erythrocyte
Assay: Minimum hemolytic activity concentration against erythrocyte
Type: cell-based
Conditions: human erythrocyte, 37° C. 1 hour, O.D.540, 50% hemolysis
READOUT_TYPE: Minimum hemolytic activity concentration Erythrocyte (ppm)
Report as a plain number; the unit ppm is understood.

// sample CCCCCCCCCCCC[N+](C)(C)Cc1ccc(C[N+](C)(C)CCCCCCCCCCCC)cc1.[Cl-].[Cl-] [Example 4BADMP-12C, reference compound] , its Minimum hemolytic activity concentration Erythrocyte was 12.5

// sample "CCCCC[N+](C)(CCCCC)Cc1c(C)c(C)c(C[N+](C)(CCCCC)CCCCC)c(C)c1C.[Cl-].[Cl-]" , its Minimum hemolytic activity concentration Erythrocyte was 800

// sample CCCCCCCC[n+]1ccc(SCc2ccc(CSc3cc[n+](CCCCCCCC)cc3)cc2)cc1.[I-].[I-] [Example I-8, reference compound] , its Minimum hemolytic activity concentration Erythrocyte was 50

// sample "CCCCC[N+](C)(CCCCC)Cc1c(C)cc(C)c(C[N+](C)(CCCCC)CCCCC)c1C.[Cl-].[Cl-]" , its Minimum hemolytic activity concentration Erythrocyte was 800

// sample "CCCCCC[N+](C)(CCCCCC)Cc1c(C)cc(C)c(C[N+](C)(CCCCCC)CCCCCC)c1C.[Cl-].[Cl-]" , its Minimum hemolytic activity concentration Erythrocyte was 400
